assay: Cmax in Sprague-Dawley rat at 10 mg/kg, po measured upto 24 hrs by LC-MS/MS analysis; assay type: ADME, organism-based; design: route oral, dose 10 mg/kg, time <=24; conditions: in vivo
measurement-kind: Cmax (ng/mL)
// return numeric value only (unit: ng/mL, not printed)

Prompt line: Note down Cmax recorded for Cc1ncc(-c2ccc3nc(NC(=O)C4CC4)sc3c2)cc1NC(=O)OC1CCOCC1
Response line: 1240

* * *

target: CYP2C19 (Homo sapiens, UniProt P33261); experiment: Inhibition of CYP2C19 (unknown origin) using cocktail of probe as substrate at 10 uM preincubated for 20 mins followed by substrate addition and measured after 20 mins by LC-MS/MS analysis relative to control; type: ADME; details: time 40 min
Sequence (P33261 whole entry): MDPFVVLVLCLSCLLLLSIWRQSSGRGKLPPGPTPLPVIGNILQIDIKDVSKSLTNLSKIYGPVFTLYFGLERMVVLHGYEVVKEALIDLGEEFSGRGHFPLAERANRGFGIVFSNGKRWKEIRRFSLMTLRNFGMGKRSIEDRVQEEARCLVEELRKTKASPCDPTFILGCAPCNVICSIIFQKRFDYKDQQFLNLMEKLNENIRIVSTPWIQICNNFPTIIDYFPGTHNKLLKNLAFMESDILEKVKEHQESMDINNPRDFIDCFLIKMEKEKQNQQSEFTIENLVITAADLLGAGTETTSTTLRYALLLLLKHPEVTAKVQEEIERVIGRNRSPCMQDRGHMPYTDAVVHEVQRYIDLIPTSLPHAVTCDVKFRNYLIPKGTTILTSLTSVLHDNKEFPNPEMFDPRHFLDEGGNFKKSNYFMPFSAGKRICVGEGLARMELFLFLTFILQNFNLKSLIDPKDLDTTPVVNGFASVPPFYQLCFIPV
measurement-kind: inhibition at 20 min, 10 µM (%)
// return numeric value only (unit: %, not printed)

Prompt line: Note down inhibition at 20 min, 10 µM recorded for Cc1ncc(-c2ccc3nc(NC(=O)C4CC4)sc3c2)cc1NC(=O)OC1CCOCC1
Response line: 41

Hey, just so you know, these numbers are from ChEMBL document CHEMBL5046240.
